All values here come from patent US20240368150A1.

system: primary human T-cells; assay: Proliferation assay after 5 days (CellTiter-Glo, CD3 stimulation; PBS counter screen); assay type: cell-based; details: Homo sapiens, T-cell, 120 h, primary human T-cells, CD3 stimulation, CellTiter-Glo after 5 days; EC50 of fitted sigmoidal curve; read-out: Tcell Proliferation CD3 EC50
pEC50: −log10 of the molar value.

| molecule | experimental target | modifier sign | pEC50 |
| --- | --- | --- | --- |
| CC(C)(C)c1nnc(-c2ccc3c(c2)N(Cc2ccc(S(=O)(=O)C(F)(F)F)cc2)C(=O)[C@@H](N)CS3(=O)=O)o1 [Example 123] | primary human T-cells | < | 5.56 |
| CC(C)(C)c1nnc(-c2cc3c(cc2Br)S(=O)(=O)C[C@H](N)C(=O)N3Cc2ccc(Cl)cc2)o1 [Example 271] | primary human T-cells | = | 5.50 |
| COC(=O)N1CCC(c2nc(-c3cc4c(cc3F)S(=O)(=O)C[C@H](N)C(=O)N4Cc3ccc(OC4CCCC4)cc3)no2)C1 (stereo partly shown) [Example 348] | primary human T-cells | = | 6.18 |
| N[C@H]1CS(=O)(=O)c2ccc(-c3nnc(N4CC5(CCCOC5)C4)o3)cc2N(Cc2ccc(Cl)cc2)C1=O [Example 405] | primary human T-cells | = | 5.97 |
| CN(C)CC(C)(C)c1nnc(-c2cc3c(cc2F)S(=O)(=O)C[C@H](N)C(=O)N3Cc2ccc(Cl)cc2)o1 [Example 146] | primary human T-cells | = | 6.72 |
| COC(C)(C)c1nnc(-c2ccc3c(c2)N(Cc2ccc(Cl)cc2)C(=O)[C@@H](N)CS3(=O)=O)o1 [Example 368] | primary human T-cells | = | 5.18 |
| CCc1coc(-c2cc3c(cc2F)S(=O)(=O)C[C@H](N)C(=O)N3Cc2ccc(Cl)cc2)n1 [Example 216] | primary human T-cells | < | 4.70 |

----------
tested on: primary human T-cells; experiment: Proliferation assay after 5 days (CellTiter-Glo, CD3 stimulation; PBS counter screen); assay type: cell-based; conditions: Homo sapiens, T-cell, 120 h, CD3 stimulation, 5 days; normalized to reference compound A1 as stimulator control = 100%, DMSO neutral control; read-out: Emax proliferation (% activation)
observation type: Emax (%)

| compound | observation type | test value |
| --- | --- | --- |
| CC(C)Oc1ccc(CN2C(=O)[C@@H](N)CS(=O)(=O)c3cc(F)c(-c4nnc(C(C)(C)C)o4)cc32)cc1 [Example 254] | Emax | 95 |
| CS(=O)(=O)N1CC(c2nnc(-c3cc4c(cc3F)S(=O)(=O)C[C@H](N)C(=O)N4Cc3ccc(Cl)cc3)o2)C2(CC2)C1 (stereo partly shown) [Example 176] | Emax | 70 |
| N[C@H]1CS(=O)(=O)c2cc(F)c(-c3noc(C(=O)NCC(F)(F)F)n3)cc2N(Cc2ccc(Cl)cc2)C1=O [Example 291] | Emax | 104 |
| CC(C)(C)c1nnc(-c2ccc3c(c2)N(Cc2ccc(OC(F)(F)F)cc2)C(=O)[C@@H](N)CS3(=O)=O)o1 [Example 360] | Emax | 103 |
| N[C@H]1C[S+]([O-])c2ccc(-c3nnc(CC(F)(F)F)o3)cc2N(Cc2ccc(OC(F)(F)F)cc2)C1=O (single isomer, unassigned; epimer a) [Example 427] | Emax | 26 |
| CC(C#N)c1nnc(-c2ccc3c(c2)N(Cc2ccc(Cl)cc2)C(=O)[C@@H](N)CS3(=O)=O)o1 (stereo partly shown) [Example 367] | Emax | 87 |
| CN1CC(c2nnc(-c3ccc4c(c3)N(Cc3ccc(OC(F)(F)F)cc3)C(=O)[C@@H](N)CS4(=O)=O)o2)CC(F)(F)C1 (stereo partly shown) [Example 421] | Emax | 123 |
| COC1(c2nnc(-c3ccc4c(c3)N(Cc3ccc(Cl)cc3)C(=O)[C@@H](N)CS4(=O)=O)o2)CC1 [Example 365] | Emax | 142 |
| CC(C)(C)Nc1nnc(-c2cc3c(cc2F)S(=O)(=O)C[C@H](N)C(=O)N3Cc2ccc(Cl)cc2)o1 [Example 488] | Emax | 105 |
| CC(C)(C#N)c1nnc(-c2ccc3c(c2)N(Cc2ccc(OC(F)(F)F)cc2)C(=O)[C@@H](N)CS3(=O)=O)o1 [Example 420] | Emax | 167 |
| CC1(c2nnc(-c3cc4c(cc3F)S(=O)(=O)C[C@H](N)C(=O)N4Cc3ccc(Cl)cc3)o2)CCNCC1 [Example 161] | Emax | 73 |
| C#CCC(C)(C)c1nnc(-c2cc3c(cc2F)S(=O)(=O)C[C@H](N)C(=O)N3Cc2ccc(OC(F)(F)F)cc2)o1 [Example 450] | Emax | 114 |
| CC(C)(C)c1nc(-c2cc3c(cc2F)S(=O)(=O)C[C@H](N)C(=O)N3Cc2ccc(OCC3CCOCC3)cc2)no1 [Example 353] | Emax | 108 |
